molecular target: Transient receptor potential cation channel subfamily V member 1 (Homo sapiens); assay: Partial agonist activity at human TRPV1 expressed in CHO cells; type: cell-based; conditions: filed as partial agonist
Sequence (Q8NER1 whole entry): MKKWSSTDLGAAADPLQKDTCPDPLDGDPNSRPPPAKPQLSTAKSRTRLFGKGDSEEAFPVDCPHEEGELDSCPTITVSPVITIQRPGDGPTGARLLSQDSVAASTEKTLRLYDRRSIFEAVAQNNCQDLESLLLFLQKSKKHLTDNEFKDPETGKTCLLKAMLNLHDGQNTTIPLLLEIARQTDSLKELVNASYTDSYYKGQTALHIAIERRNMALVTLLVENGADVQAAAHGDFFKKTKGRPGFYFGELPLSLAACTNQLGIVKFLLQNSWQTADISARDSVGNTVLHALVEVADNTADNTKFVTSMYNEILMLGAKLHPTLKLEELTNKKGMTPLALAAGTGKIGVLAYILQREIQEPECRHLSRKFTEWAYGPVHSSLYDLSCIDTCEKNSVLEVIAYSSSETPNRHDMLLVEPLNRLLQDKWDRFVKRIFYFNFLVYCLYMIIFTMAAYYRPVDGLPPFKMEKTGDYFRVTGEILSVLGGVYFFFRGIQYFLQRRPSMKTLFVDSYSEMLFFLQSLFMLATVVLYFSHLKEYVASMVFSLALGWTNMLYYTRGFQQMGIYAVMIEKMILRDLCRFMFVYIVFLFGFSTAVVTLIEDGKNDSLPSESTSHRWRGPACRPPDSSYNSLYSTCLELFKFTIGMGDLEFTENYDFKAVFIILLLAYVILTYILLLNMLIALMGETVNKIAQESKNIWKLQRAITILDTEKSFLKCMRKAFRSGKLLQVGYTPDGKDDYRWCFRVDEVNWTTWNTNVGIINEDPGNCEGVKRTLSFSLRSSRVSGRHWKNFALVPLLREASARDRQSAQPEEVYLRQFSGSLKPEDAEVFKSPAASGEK
Activity calls are given as the source filed them. The rule behind the calls is not given here.
OBSERVED PROPERTY: Activity

Solved cases below.
CC(C(=O)NCc1cc(C(C)(C)C)nn1-c1cccc(Cl)c1)c1cccc(F)c1F (centres undefined)
Active
O=C(Cc1ccc(F)c(F)c1)NCc1cc(C(F)(F)F)nn1-c1cccc(Cl)c1
Active
CC(C)(C)c1cc(CNC(=O)Cc2ccc(Cl)c(Cl)c2)n(-c2cccc(Cl)c2)n1
Active
CC(C(=O)NCc1cc(C(F)(F)F)nn1-c1cccc(Cl)c1)c1ccc(Cl)cc1 (centres undefined)
Active
CC(C)(C)c1cc(CNC(=O)Cc2cc(F)ccc2F)n(-c2cccc(Cl)c2)n1
Active

Please look up its Activity: CC(C(=O)NCc1cc(C(C)(C)C)nn1-c1cccc(Cl)c1)c1ccccc1Cl (centres undefined) Active

Please look up its Activity: CC(C)(C)c1cc(CNC(=O)Cc2ccc(Cl)c(F)c2)n(-c2cccc(Cl)c2)n1 Active

Please look up its Activity: CC1CCN(c2nc(C(F)(F)F)ccc2CNC(=O)Cc2ccc(Cl)c(F)c2)CC1 Active

Please look up its Activity: CC(C(=O)NCc1cc(C(F)(F)F)nn1-c1cccc(Cl)c1)c1ccc(F)cc1 (centres undefined) Active
